Give IC50 for every item shown.
test system: Pol theta polymerase domain (residues 1819-2590) (Homo sapiens)
Sequence (O75417 1819-2590): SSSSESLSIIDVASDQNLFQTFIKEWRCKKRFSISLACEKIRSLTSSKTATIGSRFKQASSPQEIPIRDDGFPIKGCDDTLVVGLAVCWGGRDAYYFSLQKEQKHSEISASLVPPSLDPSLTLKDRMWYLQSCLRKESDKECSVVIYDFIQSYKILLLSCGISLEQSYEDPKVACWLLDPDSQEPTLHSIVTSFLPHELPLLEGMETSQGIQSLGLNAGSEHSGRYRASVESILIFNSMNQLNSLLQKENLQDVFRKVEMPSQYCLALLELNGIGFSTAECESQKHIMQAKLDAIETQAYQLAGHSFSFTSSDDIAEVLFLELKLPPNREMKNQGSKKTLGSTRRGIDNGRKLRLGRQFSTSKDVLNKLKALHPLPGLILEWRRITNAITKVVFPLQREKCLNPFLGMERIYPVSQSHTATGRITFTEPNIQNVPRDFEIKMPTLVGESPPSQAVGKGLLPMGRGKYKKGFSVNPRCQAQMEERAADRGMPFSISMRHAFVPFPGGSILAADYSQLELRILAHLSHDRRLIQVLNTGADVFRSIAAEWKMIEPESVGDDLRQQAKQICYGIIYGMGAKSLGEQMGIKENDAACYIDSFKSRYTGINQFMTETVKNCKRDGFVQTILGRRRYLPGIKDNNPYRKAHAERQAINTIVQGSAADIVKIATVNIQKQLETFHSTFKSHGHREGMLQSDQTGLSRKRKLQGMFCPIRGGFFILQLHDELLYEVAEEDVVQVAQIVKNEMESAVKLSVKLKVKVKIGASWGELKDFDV

In the examples that follow, each entry is paired with its recorded IC50.
# input Given the molecule Cc1cc(OCC(=O)N(C)c2ccccc2)nc(C)c1Cl (racemic) , what is its reported IC50?
# output 200 to 500 nM

# input Let us now turn to CN(C(=O)CNc1nc(C(F)(F)F)cc(C(F)(F)F)c1C#N)c1ccc(C#N)cc1
# output 200 to 500 nM

# input Now the same for Cc1cc2cc(N(C)C(=O)CNc3nc(C(F)(F)F)cc(C(F)(F)F)c3C#N)ccc2o1
# output < 200 nM

Attention now turns to another entry.
# input Endpoint output: IC50 of Cc1nc(NCC(=O)N(C)c2ccc(F)cc2)c(C#N)c2c1CCC2 . Value?
# output < 200 nM

All values here come from patent US20220098154A1.
